- ASSAY_COMMENT: resazurin metabolic signal in A549 cells – cell-based, resazurin fluorescence, 24 h, PK04 Diversity Set, profiling panel (AID 1171); note: test concentration not given here
- CONDITION_SUMMARY: A549 viability, higher = more signal, called active from +8 up or from −8 down
The source made the active and inactive calls.
VALUE_KIND: z-score

Input `COC(=O)[C@@]1(Cc2ccc(F)cc2)[C@H]2c3cc(C(=O)N4CCCC4)n(Cc4ccccn4)c3C[C@H]2CN1C(=O)c1ccccc1` . Output z-score: -1.75 (inactive)

====

- ASSAY_COMMENT: compound effects on hepatocellular carcinoma cell viability – HepG2, calcein-AM fluorescence, 48 h, basal, profiling panel (AID 1164); note: test concentration not given here
- CONDITION_SUMMARY: higher = more signal
Entry flag: rule met if z-score reaches -0.03; rule not met if it does not.

CCCCCC1=C2CNC(CC(C)C)(C(=O)OC)C=C2C(C)C1=O (configuration not stated)
rule met
COc1ccc(C(O)C2C=CC3C(=O)N(c4ccccc4)C(=O)C3N2Nc2ccc([N+](=O)[O-])cc2)c2ccccc12 (configuration not stated)
rule not met
O=C1NC(=O)C2C1C=CC(C(O)c1ccc([N+](=O)[O-])cc1)N2Nc1ccccn1 (configuration not stated)
rule not met

Problem: Decide: z-score of `O=C1O[C@@H](c2ccccc2)[C@@H](c2ccccc2)N2[C@@H](c3ccc(OCCO)cc3)[C@]3(C(=O)Nc4ccc(C#CC5(O)CCCCCC5)cc43)[C@@H](C(=O)O)[C@H]12` >= -0.03?
Solution: rule met

Problem: Decide: z-score of `COCCOC(=O)N1C(=O)[C@@]2(c3cc(C#CCCO)ccc31)[C@H](C(N)=O)[C@H]1C(=O)O[C@H](c3ccccc3)[C@H](c3ccccc3)N1[C@@H]2c1ccccc1OCCO` >= -0.03?
Solution: rule not met

Problem: Decide: z-score of `CN(C)C(=O)[C@]1(Cc2ccccc2)N=C(c2ccc(OCCCO)cc2)O[C@@H]1c1ccccc1CN=[N+]=[N-]` >= -0.03?
Solution: rule not met

Problem: Decide: z-score of `[N-]=[N+]=Nc1ccccc1C[C@@]1(C(=O)NCc2ccccc2)N=C(c2ccc(OCCCO)cc2)O[C@@H]1c1ccccc1N=[N+]=[N-]` >= -0.03?
Solution: rule not met
